Would you mind telling me the reported Percent Effect of each entry?
- test.target: Protein translocase subunit SecA (Escherichia coli (strain K12)) (UniProt P10408)
- Sequence (P10408 whole entry): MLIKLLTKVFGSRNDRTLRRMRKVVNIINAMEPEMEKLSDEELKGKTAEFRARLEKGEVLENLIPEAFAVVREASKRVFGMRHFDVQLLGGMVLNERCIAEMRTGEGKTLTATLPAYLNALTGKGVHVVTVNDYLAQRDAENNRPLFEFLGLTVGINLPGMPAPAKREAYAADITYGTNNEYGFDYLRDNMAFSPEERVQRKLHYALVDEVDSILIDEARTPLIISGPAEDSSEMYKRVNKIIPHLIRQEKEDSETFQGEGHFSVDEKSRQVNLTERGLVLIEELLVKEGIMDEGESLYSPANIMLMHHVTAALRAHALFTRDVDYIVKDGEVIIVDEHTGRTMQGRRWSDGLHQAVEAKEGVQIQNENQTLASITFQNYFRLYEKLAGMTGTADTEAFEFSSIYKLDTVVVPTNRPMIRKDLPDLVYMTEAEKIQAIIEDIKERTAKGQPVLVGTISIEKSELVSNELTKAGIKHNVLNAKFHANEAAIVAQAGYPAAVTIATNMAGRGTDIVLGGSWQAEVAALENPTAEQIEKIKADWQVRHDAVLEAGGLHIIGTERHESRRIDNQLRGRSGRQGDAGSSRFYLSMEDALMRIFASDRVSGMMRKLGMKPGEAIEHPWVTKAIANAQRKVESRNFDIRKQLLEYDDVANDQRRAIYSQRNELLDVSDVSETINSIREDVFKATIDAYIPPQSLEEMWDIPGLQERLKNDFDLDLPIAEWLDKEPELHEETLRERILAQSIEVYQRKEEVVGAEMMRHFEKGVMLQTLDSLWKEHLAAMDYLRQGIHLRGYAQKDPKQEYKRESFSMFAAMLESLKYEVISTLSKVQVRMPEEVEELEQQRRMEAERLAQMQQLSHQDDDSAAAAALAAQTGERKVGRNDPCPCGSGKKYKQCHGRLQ
- protocol.details: Assay to Identify E. coli SecA ATPase Inhibitors
- Format: functional
- Parameters: scale not given: direction of the effect not stated beside the values
- reported.conditions: 30 µM
Results with a measured potency or affinity are listed apart.
Numbers only, in %.

Record excerpt, results attached:
                                   compound   assay_readout  recorded_number
0           Cc1nn(C)c(N2CCOCC2)c1CNCc1nccs1  Percent Effect            -3.96
1  Cc1nc(C)n(C2CCCN(C(=O)c3ccc(NC4CC4)nc3)C2)n1 (centres undefined)  Percent Effect            -2.93
2  CN(C)C(=O)N1CCN(Cc2ccccc2)[C@@H]2CS(=O)(=O)C[C@@H]21  Percent Effect           -0.429
3  COc1ccc(-c2nnc(SC(C)C(=O)NC3CC3)[nH]2)c(OC)c1 (centres undefined)  Percent Effect            -8.04
4        CC(=O)NCCNC(=O)c1cnc(-c2ccccc2)nc1  Percent Effect            -2.95
5  Cc1ncc(CN(C)C2CCCN(Cc3noc(C4CC4)n3)C2)s1 (centres undefined)  Percent Effect            -3.21

# map each compound to its Percent Effect
1. O=S(=O)(NCC1(O)CCOc2ccccc21)c1cccs1 (centres undefined)
2. Cc1ccc(C(=O)N2CC[C@@H]3[C@H]2CCC(=O)N3c2ccccc2)o1
3. Cc1noc(CN(Cc2ccc3c(c2)OCO3)Cc2ccc(C)o2)n1
4. Cc1ccoc1C(=O)N1C[C@H]2CCC[C@@]2(COCc2ccncc2)C1
5. CC[C@@H](CO)NC(=O)c1coc(COc2ccc(OC)cc2)n1
6. CCn1c(CN2CCC(O)(C(=O)OC)CC2)nc2c(F)cccc21

result:
1: -8.36; 2: -2.77; 3: -2.53; 4: -1.22; 5: -3.54; 6: -3.73

====

- test.target: Chromo domain-containing protein 1 (Saccharomyces cerevisiae (strain ATCC 204508 / S288c) (Baker's yeast))
- protocol.details: ScCHD-1 Enzyme Inhibition Assay; further: in the data most compounds retested in dose-response had high values
- Format: functional
- Parameters: scale not given: direction of the effect not stated beside the values
- reported.conditions: 30 µM
assay.readout: Percent Effect (%)
Give bare numbers, in %.

                                   compound   assay_readout  uom  recorded_number
0  CN(Cc1nnc(C2CC2)n1C)C1CCN(Cc2ccccc2F)C1 (stereo not drawn)  Percent Effect    %            -4.72
1  CC(C)c1nc(C2CCCN(C(=O)CCn3ccnc3)C2)no1 (stereo not drawn)  Percent Effect    %            -10.5
2            Cc1noc(C)c1CNC(=O)N1CCC(CO)CC1  Percent Effect    %           -0.505
3  Cc1nn(C)c(Cl)c1C1CCCN1C(=O)c1nccnc1N (stereo not drawn)  Percent Effect    %            -6.71
4  Cc1cnc(CN(C)CC2CCCN2c2cccnn2)cn1 (stereo not drawn)  Percent Effect    %            -25.4

# map each compound to its Percent Effect
1. CN(C)c1ncccc1CNC(=O)N1CCCC1c1ccsc1 (stereo not drawn)
2. CCCc1nc(C(C)(C)NC(=O)C2CC(=O)N(CC3CC3)C2)no1 (stereo not drawn)
3. CC(CNC(=O)c1ccc(Cl)cc1I)N1CCCC1 (stereo not drawn)

result:
1. -6.19
2. 5.6
3. 51.2

# map each compound to its Percent Effect
1. Cc1ncsc1C(=O)N1CCCN(Cc2cscn2)CC1
2. Cn1c(C(=O)N2CCC(C(=O)N3CCCC3)CC2)c(Cl)c2ccccc21
3. CCc1nc2n(n1)CC(NCC(=O)Nc1cc(C)on1)CC2 (stereo not drawn)
4. O=C(C1COCCO1)N1CCN(Cc2ccc3c(c2)CCO3)CC1 (stereo not drawn)
5. CCn1nc(C)c(CNC(=O)c2cn(CCC3CCCCN3)nn2)c1C (stereo not drawn)
6. CC(C)c1nccn1C1CCCN(C(=O)c2ccnc(N(C)C)c2)C1 (stereo not drawn)

result:
[-14.3, -6.83, -4.18, -2.12, -5.55, -18.1]

====

- test.target: Proteasome subunit beta (Trypanosoma cruzi) (UniProt O96673)
- Sequence (O96673 as listed by the source): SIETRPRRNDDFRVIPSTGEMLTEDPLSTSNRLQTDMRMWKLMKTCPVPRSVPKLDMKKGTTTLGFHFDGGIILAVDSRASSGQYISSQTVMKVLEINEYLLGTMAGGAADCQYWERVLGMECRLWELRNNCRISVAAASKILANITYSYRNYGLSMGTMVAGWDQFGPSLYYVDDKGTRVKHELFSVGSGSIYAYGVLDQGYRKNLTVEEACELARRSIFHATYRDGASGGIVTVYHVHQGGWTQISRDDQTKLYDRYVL
- protocol.details: Trypanosoma cruzi proteasome chymotrypsin-like activity (TcProtChymo) assay. Further: in the data most compounds retested in dose-response had high values.
- Assay type: functional
- Design: scale not given: direction of the effect not stated beside the values
- reported.conditions: 9.37 µM
assay.readout: Percent Effect (%)
Numbers only, in %.

# map each compound to its Percent Effect
1. NC(=O)c1csc(C(=O)N2CCCCC2Cn2cccn2)c1 (centres undefined)
2. Cn1ccnc1CN1CC[C@@H](NS(C)(=O)=O)[C@@H]1Cc1cccnc1
3. Cc1cc(NC(=O)CCN2CCCC2Cn2cncn2)no1 (centres undefined)
4. Cc1cccc(OCCNC(=O)CN2CCCC2Cn2cccn2)c1 (centres undefined)
5. Cc1ccc(CC(=O)NC(C)C(=O)N2CCS(=O)(=O)CC2)cc1 (centres undefined)
6. O=C(c1ccc[nH]1)N1CCc2c(COCC3CC3)cncc2C1
7. COCCOc1ccc(NC(=O)C2CCC2)cn1

result:
[0.539, 18.6, 14.9, -0.931, 10.2, 29.1, 15.6]

====

Would you mind telling me the reported Percent Effect of each entry?
- Tested on: Trypanosoma cruzi
- protocol.details: Trypanosoma cruzi phosphomannomutase and mannose-1-phosphate guanylyltransferase assay
- Assay type: functional
- Design: scale not given: direction of the effect not stated beside the values
- reported.conditions: 10 µM
Numbers only, in %.

Record excerpt, results attached:
>>> df
                                   molecule   assay_readout  uom  recorded_number
0       O=c1c2cnc(N3CCCCC3)nc2ccn1-c1ccccc1  Percent Effect    %             4.71
1  CCc1nc2ccccc2c(=O)n1CC1(O)CCN(S(C)(=O)=O)CC1  Percent Effect    %             1.58
2          Cc1ncsc1C(=O)N1CCCN(Cc2cscn2)CC1  Percent Effect    %             3.82
3  CCc1noc(C)c1C(=O)N1CCCC1c1c(C)nn(C)c1OC (stereo unspecified)  Percent Effect    %             2.36
4            O=C(Cn1cc(I)cn1)N1CCc2ccccc2C1  Percent Effect    %            -2.55

In the following, a different molecule is considered.
query: Given the molecule Cc1nn(C)c2cnn(C(C)C(=O)NCc3cccnc3)c12 (stereo unspecified) , what is its reported Percent Effect?
result: 1.18

====

- test.target: Ubiquitin-activating enzyme e1, putative (Leishmania donovani (strain BPK282A1)) (UniProt E9BSI1)
- Sequence (E9BSI1 as listed by the source): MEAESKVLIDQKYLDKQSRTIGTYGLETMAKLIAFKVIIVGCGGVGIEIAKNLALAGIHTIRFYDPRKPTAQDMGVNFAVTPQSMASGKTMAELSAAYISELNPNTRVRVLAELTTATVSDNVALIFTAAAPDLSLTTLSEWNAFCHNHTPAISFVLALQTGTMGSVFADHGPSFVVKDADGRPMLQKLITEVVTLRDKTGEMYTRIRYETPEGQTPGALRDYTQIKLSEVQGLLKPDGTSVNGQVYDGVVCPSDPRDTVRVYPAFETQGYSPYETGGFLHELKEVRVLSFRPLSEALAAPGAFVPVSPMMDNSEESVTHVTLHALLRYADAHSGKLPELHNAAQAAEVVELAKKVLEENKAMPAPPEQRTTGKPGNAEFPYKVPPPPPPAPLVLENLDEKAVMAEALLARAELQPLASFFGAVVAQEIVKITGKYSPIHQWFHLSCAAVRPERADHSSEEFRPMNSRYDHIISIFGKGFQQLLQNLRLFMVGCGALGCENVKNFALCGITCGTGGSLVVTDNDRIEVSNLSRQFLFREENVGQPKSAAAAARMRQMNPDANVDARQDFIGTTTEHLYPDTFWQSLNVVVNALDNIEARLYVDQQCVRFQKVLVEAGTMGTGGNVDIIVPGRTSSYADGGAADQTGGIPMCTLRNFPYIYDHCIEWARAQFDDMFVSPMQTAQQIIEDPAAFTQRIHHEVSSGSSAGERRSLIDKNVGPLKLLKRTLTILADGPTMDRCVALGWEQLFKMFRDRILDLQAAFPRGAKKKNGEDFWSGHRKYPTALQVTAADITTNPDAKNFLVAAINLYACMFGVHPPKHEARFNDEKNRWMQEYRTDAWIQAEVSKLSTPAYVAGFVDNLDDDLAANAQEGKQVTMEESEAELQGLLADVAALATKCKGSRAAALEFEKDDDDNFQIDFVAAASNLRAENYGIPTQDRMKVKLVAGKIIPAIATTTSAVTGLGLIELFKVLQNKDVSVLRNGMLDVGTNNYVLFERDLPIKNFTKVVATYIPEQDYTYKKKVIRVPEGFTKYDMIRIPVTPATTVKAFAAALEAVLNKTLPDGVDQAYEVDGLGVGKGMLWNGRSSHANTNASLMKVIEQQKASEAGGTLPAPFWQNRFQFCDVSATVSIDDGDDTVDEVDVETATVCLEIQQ
- protocol.details: Leishmania donovani Ubiquitin Activating Enzyme (LdE1)
- Assay type: functional
- Parameters: scale not given: direction of the effect not stated beside the values
- reported.conditions: 30 µM
Results with a measured potency or affinity are listed apart.
assay.readout: Percent Effect (%)
Numbers only, in %.

Record excerpt, results attached:
>>> print(df.to_string())
                                   compound  uom  recorded_number
0  CCNC(=O)N1CCC2(C1)c1ccccc1S(=O)(=O)N2CCC(C)C (configuration not stated)    %             5.33
1  O=C(C1COCCO1)N1CCN(Cc2ccc3c(c2)CCO3)CC1 (configuration not stated)    %            -5.26
2  Cn1nc2c(cc1=O)CN(CCc1nc3ccccc3c(=O)[nH]1)CC2    %             5.48
3  COc1cc(NC(=O)c2cc(C)sc2C)c(C(=O)N(C)C)cc1OC    %             7.79
4  Cc1nc(CCN(C)C(=O)C2COc3ccccc3C2)no1 (configuration not stated)    %               13

# map each compound to its Percent Effect
1. CSc1ccc(NS(=O)(=O)c2cnn(C)c2)cn1
2. CNc1nc(C(=O)N2CCCC(c3nccn3CC3CCC3)C2)cs1 (configuration not stated)
3. Cc1cc(N(C)Cc2cc(C)on2)n2nc(C)c(C)c2n1
4. O=C(c1ccncn1)N1CCO[C@H]2[C@@H](OCc3cccnc3)CC[C@@H]21
5. CN(Cc1ccsc1)C(=O)c1cccc(F)c1

result:
1: 8.22; 2: 8.22; 3: 4.17; 4: 8; 5: 20.8

# map each compound to its Percent Effect
1. CCOc1ncccc1C(=O)N1CCCCC1c1nccs1 (configuration not stated)
2. CC1CN(CC(=O)Nc2cccnc2)CCN1c1nccs1 (configuration not stated)

result:
2.7
2.7

====

- test.target: AMP-activated protein kinase, AMPK (Homo sapiens) (UniProt P54646+O43741+P54619+Q9UGJ0+Q9Y478+Q13131+Q9UGI9)
- protocol.details: AMP-dependent Kinase enzyme assay. An in vitro enzyme assay that detects ADP turnover that is directly proportional to AMPK activity. This uses naive AMPK that is activated during the assay with MK-8722
- Assay type: functional
- Set-up: scale not given: direction of the effect not stated beside the values
- reported.conditions: 30 µM
assay.readout: Percent Effect (%)
Numbers only, in %.

>>> df
                                   compound  recorded_number
0       Cc1nccn1CCCC(=O)N1CCC(Nc2cccnn2)CC1            -7.19
1  O=C(NCC1CC1)[C@H]1C[C@H]2OCC[C@H]2N(Cc2ccoc2)C1             4.14
2  COCCCC1(CO)CCCN(CCc2ccccc2)C1 (stereo unspecified)            -1.63

# map each compound to its Percent Effect
1. COc1cc(C)nc(N2CCN(C(=O)c3ccccc3C)CC2)n1
2. Fc1ccc(-c2nnc(CN3CCCC3Cn3cncn3)o2)cc1 (stereo unspecified)
3. CC(C)CNC(=O)[C@H]1CCS(=O)(=O)[C@@H]2CN(Cc3ccc(Cl)cc3)C[C@H]12
4. CCN(Cc1ccco1)C(=O)c1cc(OC)c2c(c1)OCCO2
5. CC(=O)Nc1nc(CN2CCCCC2Cn2cccn2)cs1 (stereo unspecified)
6. Cc1nc(C(=O)N2CCCC(c3cccc(-n4ccnc4)n3)C2)co1 (stereo unspecified)

result:
1: -5.76; 2: -0.239; 3: -1.66; 4: 6.68; 5: 3.07; 6: 2.78

# map each compound to its Percent Effect
1. Cn1cc(CN2CC[C@H]3O[C@H](C(=O)NCc4ccco4)CC[C@H]32)cn1
2. c1cc2n(n1)CC(CNCc1ccc(OCC3CC3)nc1)CN2 (stereo unspecified)

result:
[-3.22, 11.1]
